Target: T1, human CD39 (full length, on cells) (human, UniProt P49961 1-510)
T1 construct: Recombinant on CHOK1-hCD39 cells or natural on SK-MEL-28, SK-MEL-5 and MOLP-8 cells; the cell line is named under assay; also called hCD39; ENTPD1
T1 sequence: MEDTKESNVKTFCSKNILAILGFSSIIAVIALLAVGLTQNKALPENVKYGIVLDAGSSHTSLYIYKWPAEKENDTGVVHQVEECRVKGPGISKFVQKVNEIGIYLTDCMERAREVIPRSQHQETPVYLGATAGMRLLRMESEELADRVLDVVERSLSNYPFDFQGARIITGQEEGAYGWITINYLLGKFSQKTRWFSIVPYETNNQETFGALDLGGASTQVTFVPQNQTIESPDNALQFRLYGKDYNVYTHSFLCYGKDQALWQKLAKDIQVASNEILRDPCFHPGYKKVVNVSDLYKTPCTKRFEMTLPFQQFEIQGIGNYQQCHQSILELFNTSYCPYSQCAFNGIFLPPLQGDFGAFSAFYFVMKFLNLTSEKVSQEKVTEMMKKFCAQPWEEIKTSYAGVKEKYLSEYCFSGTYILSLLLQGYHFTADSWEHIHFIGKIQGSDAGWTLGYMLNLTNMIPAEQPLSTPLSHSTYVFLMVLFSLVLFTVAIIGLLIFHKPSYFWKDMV
Test: FACS on MOLP-8 cells, MFI
endpoint label: binding result

* hu14.H2L4 (antibody, V domains shown, humanized c14) VH: EVQLVESGGGLVKPGGSLRLSCAASGFTFSKYWMNWVRQSPGKGLEWVGEIRLKSNKYGTHYAESVKGRFTISRDDSKNTLYLQMNSLKTEDTAVYYCTTQLDLYWFFDVWGQGTTVTVSS VL: EIVMTQSPATLSVSPGERVTLSCRASQSISDYLHWYQQKPGQSPRLLIYYASQSISGIPARFSGSGSGTDFTLTISSVEPEDFAVYFCQNGHSLPLTFGGGTKLEIK | binds
* hu14.H3L2 (antibody, V domains shown, humanized c14) VH: EVQLVESGGGLVKPGGSLRLSCAASGFTFSKYWMNWVRQSPGKGLEWVAEIRLKSNKYGTHYAESVKGRFTISRDDSKNTVYLQMNSLKTEDTAVYYCTTQLDLYWFFDVWGQGTTVTVSS VL: EIVLTQSPATLSLSPGERATLSCRASQSISDYLHWYQQKPGQSPRLLIYYASQSISGIPARFSGSGSGTDFTLTISSLEPEDFAVYFCQNGHSLPLTFGGGTKLEIK | binds
* hu14.H2L1 (antibody, V domains shown, humanized c14) VH: EVQLVESGGGLVKPGGSLRLSCAASGFTFSKYWMNWVRQSPGKGLEWVGEIRLKSNKYGTHYAESVKGRFTISRDDSKNTLYLQMNSLKTEDTAVYYCTTQLDLYWFFDVWGQGTTVTVSS VL: EIVLTQSPATLSLSPGERATLSCRASQSISDYLHWYQQKPGQAPRLLIYYASQSISGIPARFSGSGSGTDFTLTISSLEPEDFAVYYCQNGHSLPLTFGGGTKLEIK | binds
